subjectOfTest: HLA-C*05:01
protocol: IEDB peptide-MHC binding, purified MHC/direct/fluorescence; filed as Kd, often an IC50 or EC50 that approximates it; bounds were set here for any values at or beyond the usual limits of such assays
measurementSetup: source organism: Bacillus thuringiensis str. Al Hakam
reportedMetric: pKd
Interpret pKd as the negative base-10 log of the concentration measured in mol/L.

Reported pKd for YSAWGGYNL was 5.38

---

subjectOfTest: HLA-A*02:17
protocol: IEDB peptide-MHC binding, purified MHC/competitive/radioactivity; filed as Kd, often an IC50 or EC50 that approximates it; bounds were set here for any values at or beyond the usual limits of such assays
measurementSetup: source organism: Dengue virus 4 Philippines/H241/1956
The sequences listed here are annotated with their Kd.
I'd appreciate it if you wrote the number followed by its unit.

# macromoleculeSequence, subjectOfTest, Kd
data = [
    ("ILIGFLVLWI", "HLA-A*02:17", "2990 nM"),
    ("FLDLPLPWAA", "HLA-A*02:17", "499 nM"),
    ("TSMAMTCIAV", "HLA-A*02:17", "62.5 nM"),
]

Lab note: next sequence to report on.
Reported Kd for KLTDWDFVV was 744 nM

---

subjectOfTest: HLA-A*31:01
protocol: IEDB peptide-MHC binding, purified MHC/competitive/radioactivity; filed as Kd, often an IC50 or EC50 that approximates it; bounds were set here for any values at or beyond the usual limits of such assays
measurementSetup: source organism: Dengue virus 4 Philippines/H241/1956
reportedMetric: Kd (nM)
Entry rule: numbers only, all in nM.

Item LALSLTFIR was tested on HLA-A*31:01; the reported Kd is 97.1

Item ATLTEGVYR was tested on HLA-A*31:01; the reported Kd is 7.26

Item MTLMKGASKR was tested on HLA-A*31:01; the reported Kd is 78.5

---

subjectOfTest: HLA-A*11:01
protocol: IEDB peptide-MHC binding, purified MHC/direct/fluorescence; filed as Kd, often an IC50 or EC50 that approximates it; bounds were set here for any values at or beyond the usual limits of such assays
measurementSetup: source organism: Salmonella enterica subsp. enterica serovar Choleraesuis str. SC-B67
reportedMetric: Kd
I'd appreciate it if you wrote the number followed by its unit.

Reported Kd for RTAKVRAFH was 0.069 µM

---

subjectOfTest: HLA-A*03:01
protocol: IEDB peptide-MHC binding, purified MHC/competitive/radioactivity; filed as Kd, often an IC50 or EC50 that approximates it; bounds were set here for any values at or beyond the usual limits of such assays
measurementSetup: source organism: Dengue virus 3 Martinique/1243/1999
reportedMetric: Kd (nM)
Entry rule: numbers only, all in nM.

Item VIYDSKFEK was tested on HLA-A*03:01; the reported Kd is 64.3

---

subjectOfTest: HLA-A*02:03
protocol: IEDB peptide-MHC binding, purified MHC/competitive/radioactivity; filed as Kd, often an IC50 or EC50 that approximates it; bounds were set here for any values at or beyond the usual limits of such assays
measurementSetup: source organism: Dengue virus 2 Peru/IQT2913/1996
reportedMetric: pKd
Interpret pKd as the negative base-10 log of the concentration measured in mol/L.

Reported pKd for TLYAVATTFI was 7.86

---

subjectOfTest: HLA-A*02:01
protocol: IEDB peptide-MHC binding, purified MHC/direct/fluorescence; filed as Kd, often an IC50 or EC50 that approximates it; bounds were set here for any values at or beyond the usual limits of such assays
measurementSetup: source organism: Burkholderia mallei
pKd: −log10 of the molar value.
reportedMetric: pKd

Reported pKd for EARGKEKLL was ≤ 4.70
